Data origin: PubChem BioAssay

compounds and their reported viability
assay_remarks: reducers of endogenous Her2 protein level, primary screen, SKBR3 breast tumor cells, AlphaScreen, ATP viability (AID 461);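 note: percent of carrier control wells set as 100% viability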
measurement_context: 18-24 h, measured here: SKBR3 viability, ATP luminescence, at 10 µM
Value expressed in %; do not type the unit.

{"compound": "COc1ccc(CNC(=O)Cn2nc(C(F)(F)F)c3c2CCC3)cc1", "units": "%", "viability": 89.5}
{"compound": "CCn1cc(C(=O)N2CCN(C(=O)c3ccco3)CC2)c2cc(OC)c(OC)cc2c1=O", "units": "%", "viability": 95}
{"compound": "O=C(NCc1nnc(SCC(=O)N2CCC(Cc3ccccc3)CC2)o1)c1ccccc1F", "units": "%", "viability": 85}

// recorded viability for COc1ccccc1C1/C(=C(/O)c2ccccc2)C(=O)C(=O)N1CC(C)C (stereo not given) : 104

// recorded viability for CCCCC(=NCCO)C1=C(O)C(C(=O)OC)C(C)(C)CC1=O (stereo not given) : 90.5

// recorded viability for COc1cccc(-c2cc(C(=O)N3CCCc4ccccc43)no2)c1 : 110

// recorded viability for COc1ccc(S(=O)(=O)NCCOc2ccccc2)cc1OC : 94

// recorded viability for c1ccc(CSCc2cn3ccsc3n2)cc1 : 93.5

// recorded viability for O=C(NCC1COc2ccccc2O1)c1ccc(NC(=O)c2ccco2)cc1 (stereo not given) : 85.5

// recorded viability for Nc1nc(N2CCN(C/C=C/c3ccccc3)CC2)nc2ccccc12 : 80.5
